Cited source for all entries: patent US20030211537A1

Measured on: cloned human µ opioid receptor (human, UniProt P35372 1-400)
Sequence (P35372 whole entry): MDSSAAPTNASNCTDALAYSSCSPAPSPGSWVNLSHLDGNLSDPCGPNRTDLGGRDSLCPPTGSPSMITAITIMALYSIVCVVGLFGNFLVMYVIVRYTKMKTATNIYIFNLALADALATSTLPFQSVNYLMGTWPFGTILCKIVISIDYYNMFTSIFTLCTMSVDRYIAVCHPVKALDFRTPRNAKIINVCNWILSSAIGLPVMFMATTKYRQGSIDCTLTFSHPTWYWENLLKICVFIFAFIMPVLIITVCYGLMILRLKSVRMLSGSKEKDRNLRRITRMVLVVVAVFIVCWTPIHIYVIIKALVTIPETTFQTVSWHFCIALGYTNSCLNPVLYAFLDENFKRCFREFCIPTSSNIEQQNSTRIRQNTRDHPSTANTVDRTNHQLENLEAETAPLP
Assay protocol: competition vs [3H]DAMGO, COS-7 membranes
pKi: −log10 of the molar value.
pKi reference

Binder: FCYWXTXT (D-Phe at 1, D-Trp at 4, Orn at 5 (printed Om), Pen at 7, C-terminal NH2; X in the letters stands for Orn 5 and Pen 7) [CTOP (D-Phe-Cys-Tyr-D-Trp-Orn-Thr-Pen-Thr-NH2)]
Comparative sign: =
pKi: 8.41
--
Binder: GGFMTSEKSQTPLVTLFKNAIIKNAYKKGE (peptide, UniProt P01189 238-267, looked up, domain: des-Tyr1-β-endorphin; also called des-Tyrl-β-endorphin) [des-Tyr1-β-endorphin]
Comparative sign: <
pKi: 6.00
